Property: apoptosis, % H460; scope: individual molecules
system: H460 cells; experiment: Apoptosis by Annexin V FITC flow cytometry, H460; format: cell-based, human; conditions: Assay 2, library 2; 10 μM for 3 days; control 10.24
MEASURED METRIC: apoptosis, % H460 (%)

[[record]]
molecule = "CCCCC(=O)c1[nH]c2cc(C)c(C(=O)O)cc2c1Cc1ccccc1 [Compound 39]"
recorded_measurement = 42.9

[[record]]
molecule = "CCCCC(=O)c1[nH]c2cc(C)c(C(=O)O)cc2c1CCCC(=O)O [Compound 42]"
recorded_measurement = 49.41

[[record]]
molecule = "CCCCCc1c(C(O)CCCC)[nH]c2cc(C)c(C(=O)O)cc12 (stereo not drawn) [Compound 10]"
recorded_measurement = 39.64

[[record]]
molecule = "CCCCC(=O)c1[nH]c2cc(C)c(C(=O)O)cc2c1-c1ccccc1 [Compound 38]"
recorded_measurement = 51.61

[[record]]
molecule = "CCCCCc1c(C(=O)CCCC)[nH]c2cc(C)c(C(=O)O)cc12 [Compound 35]"
recorded_measurement = 34.73

[[record]]
molecule = "CCCCC(=O)c1[nH]c2cc(C)c(C(=O)O)cc2c1CCCc1ccccc1 [Compound 40]"
recorded_measurement = 23.93

[[record]]
molecule = "CCCCC(=O)c1[nH]c2cc(C)c(C(=O)O)cc2c1C1CCCCC1 [Compound 37]"
recorded_measurement = 45.05

[[record]]
molecule = "CCCCC(O)c1[nH]c2cc(C)c(C(=O)O)cc2c1CCCc1ccccc1 (stereo not drawn) [Compound 15]"
recorded_measurement = 37.4

[[record]]
molecule = "CCCCC(O)c1[nH]c2cc(C)c(C(=O)O)cc2c1CC(C)C (stereo not drawn) [Compound 11]"
recorded_measurement = 24.48

